Test system: Staphylococcus aureus
test-name: In vitro inhibitory activity against Staphylococcus aureus (EryRi 011GO25i)
Format: functional
# strict inequality: MIC < 5 µg/mL yields label 1, everything else yields label 0

>  <compound>
CC[C@H]1OC(=O)[C@H](C)C(=O)[C@H](C)[C@@H](O[C@@H]2O[C@H](C)C[C@H](N(C)C)[C@H]2O)[C@](C)(OC)C[C@@H](C)C(=O)[C@H](C)[C@H]2N(CCCCc3ccnc4c(OC)cccc34)C(=O)O[C@]12C

>  <qualitative-label>
label 1

$$$$
>  <compound>
CC[C@H]1OC(=O)[C@H](C)C(=O)[C@H](C)[C@@H](O[C@@H]2O[C@H](C)C[C@H](N(C)C)[C@H]2O)[C@](C)(OC)C[C@@H](C)/C(=N\OC2CCCN(CCCc3ccccc3)C2)[C@H](C)[C@@H](O)[C@]1(C)O (some centres undefined)

>  <qualitative-label>
label 1

$$$$
>  <compound>
CC[C@H]1OC(=O)[C@H](C)C(=O)[C@H](C)[C@@H](O[C@@H]2O[C@H](C)C[C@H](N(C)C)[C@H]2O)[C@](C)(OC)C[C@@H](C)/C(=N\OCCN2CCC2)[C@H](C)[C@@H](O)[C@]1(C)O

>  <qualitative-label>
label 1

$$$$
>  <compound>
CC[C@H]1OC(=O)[C@H](C)[C@@]2(O)O[C@@](C)(C[C@@H](C)/C(=N\OCOCCOC)[C@H](C)[C@@H](O)[C@]1(C)O)[C@H](O[C@@H]1O[C@H](C)C[C@H](N(C)C)[C@H]1O)[C@H]2C

>  <qualitative-label>
label 0

$$$$
>  <compound>
CC[C@H]1OC(=O)[C@H](C)[C@@H](O[C@H]2C[C@@](C)(OC)[C@@H](O)[C@H](C)O2)[C@H](C)[C@@H](O[C@@H]2O[C@H](C)C[C@H](N(C)C)[C@H]2O)[C@](C)(O)C[C@@H](C)CN(C)[C@H](C)[C@@H](O)[C@]1(C)O

>  <qualitative-label>
label 0

$$$$

Report whether reported MIC is lower than 5 µg/mL (strictly) for CC[C@H]1OC(=O)[C@H](C)C(=O)[C@H](C)[C@@H](O[C@@H]2O[C@H](C)C[C@H](N(C)C)[C@H]2O)[C@](C)(OC)C[C@@H](C)C(=O)[C@H](C)[C@H]2N(CCN(C)Cc3ccccc3)C(=O)O[C@]12C
label 1

---

Test system: Streptococcus pneumoniae
test-name: In vitro inhibitory activity against Streptococcus pneumoniae (EryRi 030SJ5i)
Type: functional
Readings of MIC for the listed compounds
Express it in µg/mL; write the number only.

>  <substance-smiles>
CC[C@H]1OC(=O)[C@H](C)[C@@H](O[C@H]2C[C@@](C)(OC)[C@@H](O)[C@H](C)O2)[C@H](C)[C@@H](O[C@@H]2O[C@H](C)C[C@H](N(C)C)[C@H]2O)[C@](C)(O)C[C@@H](C)CN(C)[C@H](C)[C@@H](O)[C@]1(C)O

>  <data-value>
40

$$$$

What MIC appears in the records for this compound with Streptococcus pneumoniae? CC[C@H]1OC(=O)[C@H](C)C(=O)[C@H](C)[C@@H](O[C@@H]2O[C@H](C)C[C@H](N(C)C)[C@H]2O)[C@](C)(OC)C[C@@H](C)C(=O)[C@H](C)[C@H]2N(CCCCc3ccnc4ccccc34)C(=O)O[C@]12C
0.02

Record: CC[C@H]1OC(=O)[C@H](C)C(=O)[C@H](C)[C@@H](O[C@@H]2O[C@H](C)C[C@H](N(C)C)[C@H]2O)[C@](C)(OC)C[C@@H](C)C(=O)[C@H](C)[C@H]2N(NCCCc3ccnc4ccc(OC)cc34)C(=O)O[C@]12C
0.02

Also CC[C@H]1OC(=O)[C@H](C)C(=O)[C@H](C)[C@@H](O[C@@H]2O[C@H](C)C[C@H](N(C)C)[C@H]2O)[C@](C)(OC)C[C@@H](C)/C(=N\O[C@@H]2CCCN(Cc3ccc(-c4ccccc4)cc3)C2)[C@H](C)[C@@H](O)[C@]1(C)O ?
0.3
